src = paper PMC8500459

Reported Km by item:
substrate: CC(C)=CCOP(=O)(O)O; experiment: purified protein; details: ATP 1 mM (2 mM in methods), 25 mM Tris pH 7.8, 5 mM MgCl2, 37 °C
The response must be a number in µM with no trailing unit.

For reference, reported Km for MSB (Methanosarcina barkeri 3) (protein, N-His6 fusion, pET28a NdeI/EcoRI, codon-optimised synthetic gene, E. coli Rosetta2, Ni-NTA) MNVSTEPVILKLGGSVITDKAADQGVVREDSLRRIAKEVSEYRGKMIIVHGAGSFGHTYAKKYQLGKVFDPEGAIVTHESVKKLASRVVDTLNEYGVRAIAVHPMCCTICRNGRIESMYLDNIKLMLENGLVPVLHGDVVMDLELRACVLSGDQIVPYLAKELKITRLGLGSAEDGVLDNDGKTVPEITPKTFEDFKHYIRGSGSTDVTGGMLGKVQELLELSKTSCITSYIFNAGKDDNIYRFLNGEPMGTTISPDKRV stands at 32

For reference, reported Km for MHM (Methanohalophilus mahii DSM 5219) (protein, N-His6 fusion, pET28a NdeI/EcoRI, codon-optimised synthetic gene, E. coli Rosetta2, Ni-NTA) MNEKNSDITILKIGGSVITDKSSNEGIVREKAIIRIAREISFFEGPLIIVHGAGSFGHPQAKRYSLAYKFSAEGSGVTHRSVASLNELFVNALAQRNVNAVGIHPMGCLVAKEGRISKSFLLAIQMMLEKGITPVLHGDVVMDTVKGSSVISGDQIVPYLASKLNAYRIGVGSAEDGVLDEHGHPIPLITPDNFEIASMHIGGSENTDVTGGMLGKVKEMLDMSRQTKVPSYIFNANAGGNVMSFLRGEMIGTAIKDKA stands at 36

For reference, reported Km for CNG (Candidatus Nitrososphaera gargensis Ga9.2) (protein, N-His6 fusion, pET28a NdeI/EcoRI, codon-optimised synthetic gene, E. coli Rosetta2, Ni-NTA) MQKLALIKLGGSVVTFKDKPLAANTGAIDGISRVLAQLSTPAIIVHGGGSFGHYWSVKYDMHTKPAGYDPHGVSVVHESMIALNQIIINSMIRAGLNPYGMPPSVFAAGHKPVAAKIKQIYTMAKSEVMPVTFGDVVHMEGNKYSILSGDALMTMLAKVLRPSRVVFATNVDGIYKDMASRELMREIRVTTGRKKRSIEFSKASGADVTGGMQRKVAEAFKIASRGMDVLMVNGLMPERIAEAVVEGTRLQVGTVVKGSRR stands at 390

For reference, reported Km for TCP (Thermococcus paralvinellae) (protein, N-His6 fusion, pET28a NdeI/EcoRI, codon-optimised synthetic gene, E. coli Rosetta2, Ni-NTA) MIIIKLGGSVISDKEKEYSFHRHIVEQIAEEIAQFYPDESFILVHGGGSFGHPNAREYKITEGLVGDVDRKRIGFSKTHQAMLKLNDLIIQTFLEKGLPAYSVSSSSIFLLENKEVVYGELEILRKLLELKFIPVLFGDTAIALDKGIDILSGDQIVSYLAKMLKPSKVIFLMDVDGIYDRNPKERDAKLIEELNVEEIRHLLESSESAGIDVTGGIGNKLREALKIAKHSEVYFINGKVKENLGKAIRGEKVGTRLRKLEHPKIS stands at 70
